# Experimental system: Onub\Orco + Onub\Or6 (Ostrinia nubilalis, UniProt D3J5H5)
# Sequence (D3J5H9 entry or part of it): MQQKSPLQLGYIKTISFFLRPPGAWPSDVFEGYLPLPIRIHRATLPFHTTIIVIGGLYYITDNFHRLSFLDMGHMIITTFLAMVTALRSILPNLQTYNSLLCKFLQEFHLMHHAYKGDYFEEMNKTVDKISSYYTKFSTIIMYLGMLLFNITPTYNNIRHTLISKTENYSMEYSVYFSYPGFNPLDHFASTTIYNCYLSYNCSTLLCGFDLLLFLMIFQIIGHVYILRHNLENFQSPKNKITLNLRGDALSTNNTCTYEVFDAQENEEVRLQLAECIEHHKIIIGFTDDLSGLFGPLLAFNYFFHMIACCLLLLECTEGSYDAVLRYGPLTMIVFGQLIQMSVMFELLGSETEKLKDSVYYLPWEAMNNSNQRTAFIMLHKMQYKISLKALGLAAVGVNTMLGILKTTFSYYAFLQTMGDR
# Sequence (D3J5H5 entry or part of it): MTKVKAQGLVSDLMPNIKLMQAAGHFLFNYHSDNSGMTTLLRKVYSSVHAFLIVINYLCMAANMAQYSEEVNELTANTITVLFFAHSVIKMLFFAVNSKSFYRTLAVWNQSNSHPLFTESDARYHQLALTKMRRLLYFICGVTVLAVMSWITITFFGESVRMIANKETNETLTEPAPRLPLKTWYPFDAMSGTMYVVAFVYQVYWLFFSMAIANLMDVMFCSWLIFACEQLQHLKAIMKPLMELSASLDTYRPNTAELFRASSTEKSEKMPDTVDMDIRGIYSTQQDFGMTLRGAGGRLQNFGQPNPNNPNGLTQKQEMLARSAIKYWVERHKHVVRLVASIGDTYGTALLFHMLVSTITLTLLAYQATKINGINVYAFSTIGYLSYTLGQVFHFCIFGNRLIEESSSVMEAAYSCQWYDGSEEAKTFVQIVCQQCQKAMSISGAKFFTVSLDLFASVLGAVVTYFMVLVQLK
# Method notes: Agonist concentration-response, two-electrode voltage clamp in Xenopus oocytes
Assay readout: EC50

1. CCn1c(SCC(=O)Nc2ccc(C(C)C)cc2)nnc1-c1ccncc1 = 100 µM

---

Overview of recorded inhibition at 100 µM for various compounds
# Experimental system: Cqui\Orco (Culex quinquefasciatus, UniProt Q309I4)
# Sequence (Q309I4 entry or part of it): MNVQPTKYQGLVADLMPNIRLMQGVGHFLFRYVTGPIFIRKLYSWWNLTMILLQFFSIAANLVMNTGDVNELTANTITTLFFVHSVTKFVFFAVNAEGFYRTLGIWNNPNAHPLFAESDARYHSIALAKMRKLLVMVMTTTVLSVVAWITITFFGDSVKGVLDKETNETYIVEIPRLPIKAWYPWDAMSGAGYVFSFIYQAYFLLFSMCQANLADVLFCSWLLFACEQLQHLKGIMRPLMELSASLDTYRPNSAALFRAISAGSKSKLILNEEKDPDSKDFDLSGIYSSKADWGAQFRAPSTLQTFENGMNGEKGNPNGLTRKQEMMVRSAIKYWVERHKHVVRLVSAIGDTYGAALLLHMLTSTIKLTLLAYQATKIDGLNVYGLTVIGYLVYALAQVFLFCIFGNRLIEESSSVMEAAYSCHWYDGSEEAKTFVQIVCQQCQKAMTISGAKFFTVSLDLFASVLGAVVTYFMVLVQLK
# Method notes: Antagonism of OLC12 activation of Orco in Xenopus oocytes
# Type: cell-based
# Recorded conditions: Cqui\Orco activated by 30µM OLC12 (~EC5); 100µM of each amine; mean ± SEM, n = 3-10; read-out: inhibition of the OLC12 response
Assay readout: inhibition at 100 µM (%)

1. CN(C)Cc1c[nH]c2ccccc12 [gramine] = 30
2. NCCc1c[nH]c2ccc(O)cc12 [serotonin] = 23
3. COc1ccc2[nH]cc(CCNC(C)=O)c2c1 [melatonin] = 13
4. NCCc1ccc(O)cc1 [tyramine] = 40
5. NCCc1ccccc1 [phenethylamine] = 41
6. NCCc1c[nH]c2ccccc12 [tryptamine] = 92
